assay: Identification of proteins required for the processing of the EWS-FLI1 nascent transcript; settings: TC32 Ewing sarcoma NR0B1-luc vs CMV-luc (EWS-FLI1 target promoter against control promoter), 48 h; screened at 20 nM (by protocol);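 note: robust z of luciferase light less the median z of siRNAs with the same seed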
Whole data set: some 59,000 sequences, median the read-out near -0.00055, cut for the lowest 2% near -2. The sample as a whole holds a higher share of the lowest values than the screen did.
Please use Met whenever seed-corrected z-score is not below -0.1, and Not met whenever it is.

INSERT INTO assay_data (sequencechain, grouplabel) VALUES
  ('UUCAGGACAAUCUUGUUCC against UBL5', 'Met'),
  ('UCUGGUUCUUGUUGGGUAG against ECEL1', 'Not met'),
  ('UGUGGUUGAAGAGGCUUGU against TMEM39B', 'Not met');

Q) Answer whether seed-corrected z-score of AUAACGAUGCUUUAUGUGG against ABHD1 is greater than or equal to -0.1.
A) Not met

Q) Answer whether seed-corrected z-score of AAAGCUGCGUCUUGUCUCG against LDLRAD2 is greater than or equal to -0.1.
A) Not met

Q) Answer whether seed-corrected z-score of UAUCUUGCAUAAGUCUUGU against XRCC6BP1 is greater than or equal to -0.1.
A) Met

Q) Answer whether seed-corrected z-score of UUAUGGGCUCUGAUGACCG against DIP2C is greater than or equal to -0.1.
A) Met

Q) Answer whether seed-corrected z-score of AUCCGGUACACCAUGUGGU against CYTH2 is greater than or equal to -0.1.
A) Not met

Q) Answer whether seed-corrected z-score of UGUUGUAGUGGGCCAGACG against HIST1H2BG is greater than or equal to -0.1.
A) Not met

Q) Answer whether seed-corrected z-score of UUCUUUGCCUCGCUUAUUC against OLFML2B is greater than or equal to -0.1.
A) Met

Q) Answer whether seed-corrected z-score of UUUGCGAUGUUCCUCUUCC against GOLIM4 is greater than or equal to -0.1.
A) Met

Q) Answer whether seed-corrected z-score of UCCGUUCACAUUCAGGAUC against SLC6A16 is greater than or equal to -0.1.
A) Not met

Q) Answer whether seed-corrected z-score of UUUUCGGCGUGUAUCCUCG against CHMP1B is greater than or equal to -0.1.
A) Not met

Q) Answer whether seed-corrected z-score of AUGUGGACAGCGUAGCUCC against FUT4 is greater than or equal to -0.1.
A) Not met

Q) Answer whether seed-corrected z-score of UUAGAGUAAGUAAAUAUCC against RPS18P5 is greater than or equal to -0.1.
A) Not met

Q) Answer whether seed-corrected z-score of AAAUAUAUAGGGCAUCCAG against PLEKHM1P1 is greater than or equal to -0.1.
A) Met

Q) Answer whether seed-corrected z-score of UAAGCGAAUAGGAUGCGCU against YWHAEP5 is greater than or equal to -0.1.
A) Not met
